Just for reference, the supplement of paper PMC10307832 is where these values come from.

- Tested on: NCI-H358
- assay_remarks: relative viability (nuclei count vs DMSO), 5 days (fraction); higher = more cells survive
- test_parameters: first compound 8 µM
In this section we review reported relative viability values for a set of compounds.

These recorded examples may help you get a feel for the data.
O=c1[nH]c2ccccc2n1C1CCN(CCCC(c2ccc(F)cc2)c2ccc(F)cc2)CC1 [Pimozide] + C[C@]1(O)C[C@@H](c2nc(-c3ccc4ccc(-c5ccccc5)nc4c3)c3c(N)nccn32)C1 [Linsitinib] (partner 1 µM) = 0.693
O=c1[nH]c2ccccc2n1C1CCN(CCCC(c2ccc(F)cc2)c2ccc(F)cc2)CC1 [Pimozide] + N=C(N)NC(=N)NCCc1ccccc1 [Phenformin] (partner 250 µM) = 0.327

Please find the next compound below.
Answer with the recorded relative viability for the compound listed here: O=c1[nH]c2ccccc2n1C1CCN(CCCC(c2ccc(F)cc2)c2ccc(F)cc2)CC1 [Pimozide] + COc1cc2c(Oc3ccc(NC(=O)C4(C(=O)Nc5ccc(F)cc5)CC4)cc3F)ccnc2cc1OCCCN1CCOCC1 [Foretinib] (partner 0.25 µM)
0.695

----------
- Tested on: LU99A
- assay_remarks: relative viability (nuclei count vs DMSO), 5 days (fraction); higher = more cells survive
- test_parameters: first compound 2.53 µM
measure: relative viability
// no unit string in output, number only

These recorded examples may help you get a feel for the data.
O=c1[nH]c2ccccc2n1C1CCN(CCCC(c2ccc(F)cc2)c2ccc(F)cc2)CC1 [Pimozide] + CS(=O)(=O)N1CCN(Cc2cc3nc(-c4cccc5[nH]ncc45)nc(N4CCOCC4)c3s2)CC1 [Pictilisib] (partner 1 µM) = 0.302
Cc1cnc(-c2cnc(NCCNc3ccc(C#N)cn3)nc2-c2ccc(Cl)cc2Cl)[nH]1 + Cc1nc(NC(=O)N2CCC[C@H]2C(N)=O)sc1-c1ccnc(C(C)(C)C(F)(F)F)c1 [Alpelisib] (partner 2 µM) = 0.516
Cc1cnc(-c2cnc(NCCNc3ccc(C#N)cn3)nc2-c2ccc(Cl)cc2Cl)[nH]1 + CC(=O)Nc1cccc(-n2c(=O)n(C3CC3)c(=O)c3c(Nc4ccc(I)cc4F)n(C)c(=O)c(C)c32)c1 [Trametinib] (partner 0.02 µM) = 0.534
Cc1cnc(-c2cnc(NCCNc3ccc(C#N)cn3)nc2-c2ccc(Cl)cc2Cl)[nH]1 + C[C@]1(O)C[C@@H](c2nc(-c3ccc4ccc(-c5ccccc5)nc4c3)c3c(N)nccn32)C1 [Linsitinib] (partner 1 µM) = 0.569
Cc1cnc(-c2cnc(NCCNc3ccc(C#N)cn3)nc2-c2ccc(Cl)cc2Cl)[nH]1 + COc1cc2c(Oc3ccc(NC(=O)C4(C(=O)Nc5ccc(F)cc5)CC4)cc3F)ccnc2cc1OCCCN1CCOCC1 [Foretinib] (partner 0.25 µM) = 0.765

Answer with the recorded relative viability for the molecule listed here: O=c1[nH]c2ccccc2n1C1CCN(CCCC(c2ccc(F)cc2)c2ccc(F)cc2)CC1 [Pimozide] + N=C(N)NC(=N)NCCc1ccccc1 [Phenformin] (partner 250 µM)
0.765

Answer with the recorded relative viability for the molecule listed here: Cc1cnc(-c2cnc(NCCNc3ccc(C#N)cn3)nc2-c2ccc(Cl)cc2Cl)[nH]1 + CC1(C)CCC(c2ccc(Cl)cc2)=C(CN2CCN(c3ccc(C(=O)NS(=O)(=O)c4ccc(N[C@H](CCN5CCOCC5)CSc5ccccc5)c(S(=O)(=O)C(F)(F)F)c4)cc3)CC2)C1 [Navitoclax] (partner 0.5 µM)
0.823

Answer with the recorded relative viability for the molecule listed here: Cc1cnc(-c2cnc(NCCNc3ccc(C#N)cn3)nc2-c2ccc(Cl)cc2Cl)[nH]1 + C[C@@H](Oc1cc(-c2cnn(C3CCNCC3)c2)cnc1N)c1c(Cl)ccc(F)c1Cl [Crizotinib] (partner 1 µM)
0.592

Answer with the recorded relative viability for the molecule listed here: Cc1cnc(-c2cnc(NCCNc3ccc(C#N)cn3)nc2-c2ccc(Cl)cc2Cl)[nH]1 + Cc1cc(Nc2cc(N3CCN(C)CC3)nc(Sc3ccc(NC(=O)C4CC4)cc3)n2)n[nH]1 [Tozasertib] (partner 0.1 µM)
0.243

----------
- Tested on: NCI-H1666
- assay_remarks: relative viability (nuclei count vs DMSO), 5 days (fraction); higher = more cells survive
- test_parameters: first compound 0.8 µM
# label = T if relative viability < 0.8 else F

Reference set (6 entries):
Cc1cnc(-c2cnc(NCCNc3ccc(C#N)cn3)nc2-c2ccc(Cl)cc2Cl)[nH]1 + CC(=O)Nc1cccc(-n2c(=O)n(C3CC3)c(=O)c3c(Nc4ccc(I)cc4F)n(C)c(=O)c(C)c32)c1 [Trametinib] (partner 0.02 µM) = F
O=c1[nH]c2ccccc2n1C1CCN(CCCC(c2ccc(F)cc2)c2ccc(F)cc2)CC1 [Pimozide] + Cc1nc(NC(=O)N2CCC[C@H]2C(N)=O)sc1-c1ccnc(C(C)(C)C(F)(F)F)c1 [Alpelisib] (partner 2 µM) = F
Cc1cnc(-c2cnc(NCCNc3ccc(C#N)cn3)nc2-c2ccc(Cl)cc2Cl)[nH]1 + CS(=O)(=O)N1CCN(Cc2cc3nc(-c4cccc5[nH]ncc45)nc(N4CCOCC4)c3s2)CC1 [Pictilisib] (partner 1 µM) = T
Cc1cnc(-c2cnc(NCCNc3ccc(C#N)cn3)nc2-c2ccc(Cl)cc2Cl)[nH]1 + O=C(CCCCCCC(=O)Nc1ccccc1)NO [Vorinostat] (partner 1 µM) = F
O=c1[nH]c2ccccc2n1C1CCN(CCCC(c2ccc(F)cc2)c2ccc(F)cc2)CC1 [Pimozide] + CS(=O)(=O)N1CCN(Cc2cc3nc(-c4cccc5[nH]ncc45)nc(N4CCOCC4)c3s2)CC1 [Pictilisib] (partner 1 µM) = T
Cc1cnc(-c2cnc(NCCNc3ccc(C#N)cn3)nc2-c2ccc(Cl)cc2Cl)[nH]1 + Cc1nc(NC(=O)N2CCC[C@H]2C(N)=O)sc1-c1ccnc(C(C)(C)C(F)(F)F)c1 [Alpelisib] (partner 2 µM) = F

Does the reported relative viability of the following compound sit strictly below 0.8? Cc1cnc(-c2cnc(NCCNc3ccc(C#N)cn3)nc2-c2ccc(Cl)cc2Cl)[nH]1 + Cc1cc(Nc2cc(N3CCN(C)CC3)nc(Sc3ccc(NC(=O)C4CC4)cc3)n2)n[nH]1 [Tozasertib] (partner 0.1 µM)
T

Does the reported relative viability of the following compound sit strictly below 0.8? Cc1cnc(-c2cnc(NCCNc3ccc(C#N)cn3)nc2-c2ccc(Cl)cc2Cl)[nH]1 + COc1cc2c(Oc3ccc(NC(=O)C4(C(=O)Nc5ccc(F)cc5)CC4)cc3F)ccnc2cc1OCCCN1CCOCC1 [Foretinib] (partner 0.25 µM)
F

Does the reported relative viability of the following compound sit strictly below 0.8? O=c1[nH]c2ccccc2n1C1CCN(CCCC(c2ccc(F)cc2)c2ccc(F)cc2)CC1 [Pimozide] + COc1cccc2cc(-c3nc([C@H]4CC[C@H](C(=O)O)CC4)n4ncnc(N)c34)[nH]c12 [OSI-027] (partner 0.5 µM)
T

----------
- Tested on: NCI-H2405
- assay_remarks: relative viability (nuclei count vs DMSO), 5 days (fraction); higher = more cells survive
- test_parameters: first compound 4 µM
In this section we review reported relative viability values for a set of molecules.
// no unit string in output, number only

These recorded examples may help you get a feel for the data.
Cc1sc2c(c1C)C(c1ccc(Cl)cc1)=N[C@@H](CC(=O)OC(C)(C)C)c1nnc(C)n1-2 [JQ1] + Nc1nc2[nH]cc(CCc3ccc(C(=O)N[C@@H](CCC(=O)O)C(=O)O)cc3)c2c(=O)[nH]1 [Pemetrexed] (partner 0.2 µM) = 0.321
Cc1sc2c(c1C)C(c1ccc(Cl)cc1)=N[C@@H](CC(=O)OC(C)(C)C)c1nnc(C)n1-2 [JQ1] + CC(C)C[C@H](NC(=O)[C@H](Cc1ccccc1)NC(=O)c1cnccn1)B(O)O [Bortezomib] (partner 0.002 µM) = 0.678
Cc1sc2c(c1C)C(c1ccc(Cl)cc1)=N[C@@H](CC(=O)OC(C)(C)C)c1nnc(C)n1-2 [JQ1] + CC1(C)CCC(c2ccc(Cl)cc2)=C(CN2CCN(c3ccc(C(=O)NS(=O)(=O)c4ccc(N[C@H](CCN5CCOCC5)CSc5ccccc5)c(S(=O)(=O)C(F)(F)F)c4)cc3)CC2)C1 [Navitoclax] (partner 0.5 µM) = 0.117

Please find the next molecule below.
Answer with the recorded relative viability for the molecule listed here: Cc1sc2c(c1C)C(c1ccc(Cl)cc1)=N[C@@H](CC(=O)OC(C)(C)C)c1nnc(C)n1-2 [JQ1] + CC(=O)c1c(C)c2cnc(Nc3ccc(N4CCNCC4)cn3)nc2n(C2CCCC2)c1=O [Palbociclib] (partner 0.5 µM)
0.311

----------
- System: NCI-H358
- assay_remarks: relative viability (nuclei count vs DMSO), 5 days (fraction); higher = more cells survive
- test_parameters: first compound 0.05 µM
measure: relative viability

Please report relative viability with NCI-H358 for item Nc1ccn([C@@H]2O[C@H](CO)[C@@H](O)[C@@H]2O)c(=O)n1 [Cytarabine] + Nc1ncn([C@H]2C[C@H](O)[C@@H](CO)O2)c(=O)n1 [Decitabine] (partner 2 µM) .
0.226

Please report relative viability with NCI-H358 for item Nc1ccn([C@@H]2O[C@H](CO)[C@@H](O)[C@@H]2O)c(=O)n1 [Cytarabine] + CCNC(=O)c1noc(-c2cc(C(C)C)c(O)cc2O)c1-c1ccc(CN2CCOCC2)cc1 [Luminespib] (partner 0.01 µM) .
0.34
